So I've got a bunch of compounds here, and I need their ED50 values.
methodNotes: Catalepsy wire mesh, rat, max.
Assay type: in vivo, rats
experimentalContext: Rattus norvegicus, sc; rats, s.c., strongest effect within first 6 hours; read-out: Catalepsy wire mesh, rat, max. ED50
Give the value in mg/kg but do not write mg/kg after it.

Supply reported ED50 belonging to this compound: COc1ccc2c(c1)C(=C1CCN(C[C@H]3CC[C@H](O)CC3)CC1)c1ccc(F)cc1S2 [Lu 16-052]
0.23

Kindly indicate its recorded ED50. Item: Cc1ccc2c(c1)C(=C1CCN(CCN3CCOC3=O)CC1)c1ccc(F)cc1S2 [Lu 14-070]
1.8

Provide only the value of recorded ED50 for CN(C)CC/C=C1/c2ccccc2Sc2ccc(Cl)cc21 [chlorprothixene, reference compound]
4

Let me know recorded ED50 for O=C1CCC(CN2CCC(=C3c4ccc(F)cc4Sc4ccc(C(F)(F)F)cc43)CC2)CC1 [Lu 16-088] , thanks.
0.81

State its ED50: Fc1ccc2c(c1)Sc1ccc(C(F)(F)F)cc1C2=C1CCN(CC2CCOCO2)CC1 (stereo not shown) [Lu 14-130]
2.8

Complete the entry with ED50 for O=C(CCCN1CCC(O)(c2ccc(Cl)cc2)CC1)c1ccc(F)cc1 [haloperidol, reference compound]
0.21

Report ED50, nothing else, for this compound: OCCN1CCN(CCCN2c3ccccc3Sc3ccc(C(F)(F)F)cc32)CC1 [fluphenazine, reference compound]
0.099

Hello, please tell me recorded ED50 for this one: O[C@H]1CC[C@H](CN2CCC(=C3c4ccccc4Sc4ccc(Cl)cc43)CC2)CC1 [Lu 14-047]
3.5

Look up and state reported ED50 for Cc1ccc2c(c1)Sc1ccc(C(F)(F)F)cc1C2=C1CCN(C[C@H]2CC[C@H](O)CC2)CC1 [Lu 16-014]
0.97

Given N[C@H]1CC[C@H](CN2CCC(=C3c4ccc(F)cc4Sc4ccc(C(F)(F)F)cc43)CC2)CC1 [Lu 16-042] , respond with its ED50.
3.3

Write down ED50 measured for item CSc1ccc2c(c1)C(=C1CCN(C[C@H]3CC[C@H](O)CC3)CC1)c1ccccc1S2 [Lu 15-019]
0.6

Supply reported ED50 belonging to this compound: OCCN1CCN(CCC=C2c3ccccc3Sc3ccc(Cl)cc32)CC1 [clopenthixol, reference compound]
0.95

Read the entry O=C1NCCN1CCN1CCC(=C2c3ccccc3Sc3ccc(Cl)cc32)CC1 [Lu 16-105] and write its reported ED50.
0.38

Return ED50 (reported value) for this compound: CSc1ccc2c(c1)C(=C1CCN(C[C@H]3CC[C@H](O)CC3)CC1)c1ccc(F)cc1O2 [Lu 15-119]
0.08

Recall and state the measured ED50 for O[C@H]1CC[C@@H](CN2CCC(=C3c4ccc(F)cc4Sc4ccc(C(F)(F)F)cc43)CC2)CC1 [Lu 15-013] .
1.2

State its ED50 for this compound: CN1CCN(C2=Nc3cc(Cl)ccc3Nc3ccccc32)CC1 [clozapine, reference compound]
85

----------
methodNotes: Neuroleptic effect: duration and strength (remarks of Table 2)
Format: in vivo
experimentalContext: duration of neuroleptic effect, in words
resultType: Duration (remarks, words)

Examples from the recorded data:
O[C@H]1CC[C@H](CN2CCC(=C3c4ccc(F)cc4Sc4cc(F)ccc43)CC2)CC1    short acting
O=C1NCCN1CCN1CCC(=C2c3ccccc3Sc3ccc(Cl)cc32)CC1    short acting
CN1CCN(C2=Nc3cc(Cl)ccc3Nc3ccccc32)CC1 [clozapine, reference compound]    short acting
O[C@H]1CCCC[C@H]1CN1CCC(=C2c3ccc(F)cc3Sc3ccc(C(F)(F)F)cc32)CC1 (relative stereo)    long acting
CSc1ccc2c(c1)C(=C1CCN(C[C@H]3CC[C@H](O)CC3)CC1)c1ccc(F)cc1S2    long acting

Please supply the value of reported Duration (remarks, words) for the item CN(C)S(=O)(=O)c1ccc2c(c1)C(=C1CCN(C[C@H]3CC[C@H](O)CC3)CC1)c1ccc(F)cc1S2
long acting

For the molecule CN(C)CC/C=C1/c2ccccc2Sc2ccc(Cl)cc21 [chlorprothixene, reference compound] , report Duration (remarks, words).
short acting

Please report Duration (remarks, words) for the following molecule: O=C1OCCN1CCN1CCC(=C2c3ccccc3Sc3ccc(Cl)cc32)CC1
short acting

# return recorded Duration (remarks, words) for entry Cc1ccc2c(c1)Sc1ccc(C(F)(F)F)cc1C2=C1CCN(C[C@H]2CC[C@H](O)CC2)CC1
long acting

Given the molecule Fc1ccc2c(c1)Sc1ccc(C(F)(F)F)cc1C2=C1CCN(CC2CCOCC2)CC1 , write its reported Duration (remarks, words).
long acting

Reference for the values: patent US4285956A
